kon: recorded values
TARGET_ENTITY: T1, human Angiopoietin-2 (human, UniProt O15123 19-496)
T1 construct: Mostly bought recombinant protein (R&D Systems 623-AM/CF, 623-AN; biotinylated BT623) or supernatant of transfected 293F cells; also called Ang-2; rhAng-2
T1 sequence: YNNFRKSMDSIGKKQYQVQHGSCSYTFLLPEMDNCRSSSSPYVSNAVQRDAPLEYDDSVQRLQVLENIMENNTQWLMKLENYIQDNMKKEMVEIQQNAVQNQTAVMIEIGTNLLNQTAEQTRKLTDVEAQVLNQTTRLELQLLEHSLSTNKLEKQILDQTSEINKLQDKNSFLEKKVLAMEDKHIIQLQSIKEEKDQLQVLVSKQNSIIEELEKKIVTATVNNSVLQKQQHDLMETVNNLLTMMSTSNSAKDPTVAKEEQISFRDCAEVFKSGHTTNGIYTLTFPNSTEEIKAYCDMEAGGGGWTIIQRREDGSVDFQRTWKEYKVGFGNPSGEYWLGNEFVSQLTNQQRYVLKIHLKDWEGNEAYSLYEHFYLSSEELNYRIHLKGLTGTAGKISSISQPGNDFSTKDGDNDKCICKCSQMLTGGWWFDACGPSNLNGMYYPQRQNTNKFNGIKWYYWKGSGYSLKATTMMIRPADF
EXPERIMENT: Biacore, mAb captured
Protocol: The label-free surface plasmon resonance (SPR), or Biacore, was utilized to measure the antibody affinity to the antigen. For this purpose, a high-density goat anti-human antibody surface over a CM5 Biacore chip was prepared using routine amine coupling. All the purified mAbs were diluted to approximately 8 μg/ml in HBS-P running buffer containing 100 μg/ml BSA and 10 mg/mL carboxymethyldextran. […]
VALUE_TYPE: kon (M⁻¹ s⁻¹)

binder="mAb 5.62.1 (antibody, V domains shown, Human hybridoma IgG (XenoMouse); also called x5.62) VH: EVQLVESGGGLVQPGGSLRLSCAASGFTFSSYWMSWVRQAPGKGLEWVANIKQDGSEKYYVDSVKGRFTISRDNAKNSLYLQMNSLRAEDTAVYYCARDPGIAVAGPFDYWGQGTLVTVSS VL: EIVMTQSPATLSVSPGERATLSCRASQSVSSNLAWYQQKPGQAPRLLIYGAFTRATGIPARFSGSGSGTEFTLTISSLQSEDFAVYYCQQYNHWWTFGQGTKVGIKR" recorded_result=150000
binder="mAb 5.108.1 (antibody, V domains shown, Human hybridoma IgG (XenoMouse); also called x5.108) VH: QVQLVESGGGVVQPGRSLRLSCAASGFTFSSYGMHWVRQAPGKGLEWVAVIWYDGSNKYYADSVKGRFTISRDNSKNTLYLQMNSLRAEDTAMYYCARELALWGQGTLVTVSS VL: EIVMTQSPATLSVSPGERATLSCRASQSVSSYLAWYQQKPGQAPRLLIYGAFTRATGIPARFRGSGSGPEFTLTISSLQSEDFAVYYCQQYSHWWTFGQGTKVEIKR" recorded_result=320000
binder="mAb 3.3.2 (antibody, V domains shown, Human hybridoma IgG (XenoMouse); also called 3.3.1; x3.3) VH: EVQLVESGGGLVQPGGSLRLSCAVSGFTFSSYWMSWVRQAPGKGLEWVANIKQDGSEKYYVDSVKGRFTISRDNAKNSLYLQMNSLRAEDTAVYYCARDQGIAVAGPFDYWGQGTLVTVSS VL: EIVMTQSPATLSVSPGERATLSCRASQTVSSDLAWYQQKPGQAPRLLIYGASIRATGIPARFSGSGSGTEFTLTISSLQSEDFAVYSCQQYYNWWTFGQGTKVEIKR" recorded_result=300000
